Test system: CCRF-CEM leukemia
Assay remarks: NCI tumour cell line growth inhibition, 48 h
Parameter: log10 TGI (log10 of the value in µM)

compound=CN(C)CCNc1nc2ccccc2c2c1C(=O)c1ccccc1-2 parameter="log10 TGI" test_result=0.61
compound=O=C(O)c1ccc(Nc2cnc3ccc(C(F)(F)F)cc3n2)cc1 parameter="log10 TGI" test_result=1.63
compound=COc1cc2cc3c4c(cc(OC)c(OC)c4c2cc1OC)CCN3C(=O)OCCBr parameter="log10 TGI" test_result=1.95
compound=CCCCCCCCCCCCCCCCCC1=NC(C)(C)CN1CCO parameter="log10 TGI" test_result=0.70
compound=COc1ccc(C=O)cc1Oc1ccc(C[C@H]2c3c(cc(OC)c4c3Oc3cc5c(cc3O4)CCN(C)C5=O)CCN2C)cc1 parameter="log10 TGI" test_result=1.34
compound=O=C(Nc1ccccc1)Nc1ccccc1CNc1nc(Nc2ccc(OCCN3CCCC3)cc2)ncc1Cl parameter="log10 TGI" test_result=1.25
compound="CC(C)(C)NCCC(O)c1cc(C(F)(F)F)nc2c(C(F)(F)F)cccc12 (stereo not given)" parameter="log10 TGI" test_result=1.48
compound=CN(C)c1ccc(Sc2ccc3nc(N)nc(N)c3c2)cc1 parameter="log10 TGI" test_result=1.48
compound=O=C1/C(=C/c2ccccc2)CN(C(=O)OCC(Cl)(Cl)Cl)C/C1=C\c1ccccc1 parameter="log10 TGI" test_result=1.13
